Tested on: Plasmodium falciparum
procedure.details: MMV: P. falciparum NF54 functionally mature Stage V gametocytes were incubated for 24 hr in the presence of the test compounds. Gamete formation was then triggered by addition of 2uM xantheurenic acid and temperature decrease to ~20C. Female gamete formation was recorded 24 hr later by automated microscopy detection of surface labelling of female gametes with a Cy3-conjugated antibody reactive to Pfs25. All compounds were tested in 4 independent experiments and data presented here is the mean. IC50s determined for selected compounds.
Format: functional, organism-based
particulars: NF54, 24 h
readout.label: IC50 (µM)

Cl.Clc1cc(Br)ccc1-c1ccc(CNCC2CCNCC2)o1 :: 0.159
CN(C)CCCNc1c2ccccc2nc2ccccc12 :: 1.07
COc1ccc2c(c1)C1(Nc3ccccc3-c3nc4ccccc4n31)C(=O)N2 (stereo not drawn) :: 6.45
CC1CC2=C(CC1CNCCCN(C)C)C(C)(C)CCC2 (stereo not drawn) :: 0.189

###

System: Plasmodium falciparum
procedure.details: MMV: P. falciparum NF54 functionally mature Stage V gametocytes were incubated for 24 hr in the presence of the test compounds. Gamete formation was then triggered by addition of 2uM xantheurenic acid and temperature decrease to ~20C. Male gamete exflagellation was recorded and analysed by automated microscopy after 20 min. All compounds were tested in 4 independent experiments and data presented here is the mean.
Type: functional
Parameters: concentration or dose not given beside the values
inhibition overview
readout.label: inhibition (%)

CCCOCc1cc(CN2CCN(c3cccc(Cl)c3)CC2)c(O)c2ncccc12 :: 19
COc1ccc(CCn2c(=N)c(C(=O)NCc3cccnc3)cc3c(=O)n4cccc(C)c4nc32)cc1 :: -7.17
COc1ccc(/C=C2/SC(=Nc3ccccc3)NC2=O)cc1 :: 3.39
CCN(CC)c1cc(C)c2cc(NC(=O)c3cccc(OC)c3)ccc2n1 :: -1.32
Cc1ccc(S(=O)(=O)c2c(COC(=O)c3cccc(C)c3)c(-c3ccccc3)nn2C)cc1 :: -0.37
O=C(Nc1ccc(-c2nc3cc(NC(=O)c4ccc(Cl)cc4)ccc3[nH]2)cc1)c1ccc(Cl)cc1 :: -17.6
COc1ccc(C(C)=O)cc1N1C(=O)C2C(C1=O)C1(c3ccccc3)C(=O)C2(c2ccccc2)C(c2ccc(C)cc2)=C1c1ccc(C)cc1 (stereo unspecified) :: 21.8
COc1ccccc1N1CCN(C(CNS(=O)(=O)c2ccc(Cl)cc2)c2cccnc2)CC1 (stereo unspecified) :: 3.66
CCOc1cc2c(cc1OCC)C(c1cc(OC)c(O)cc1Cl)NCC2 (stereo unspecified) :: 19.6
COc1ccc(-c2cc3c(SCC(=O)Nc4cc(C(F)(F)F)ccc4Cl)nccn3n2)cc1 :: 23.5
Cc1c(C)n(CC(O)CNC2CCCCC2C)c2ccccc12 (stereo unspecified) :: 8.26
Cc1ccnc(NC(c2cccc(OCc3ccccc3)c2)c2ccc3cccnc3c2O)c1 (stereo unspecified) :: 11
CC(O)(c1ccc(Cl)cc1)C(CN1CCCCC1)c1ccccc1.Cl (stereo unspecified) :: -5.37
CCCCCCc1cc2cc(-c3nc4ccccc4[nH]3)c(=Nc3ccccc3C)oc2cc1O :: 9.8
Cl.Cn1c(=O)n(C)c2cc(CNCCNc3ccnc4cc(Cl)ccc34)ccc21 :: -3.18
CCCc1c(C)nc2ccc(Br)cc2c1O :: -14.5
O=C(Nc1ccsc1C(=O)NC1CCCCC1)c1ccc(F)cc1 :: 0.722
CCOc1cc2c(cc1OCC)C(c1cc(Cl)ccc1O)NCC2 (stereo unspecified) :: 4.54
COC(=O)c1ccc(C2C3=C(O)CC(c4ccc(F)cc4)CC3=Nc3ccccc3N2C(=O)c2ccccc2)cc1 (stereo unspecified) :: -76.8
Cc1ccc(-c2cc3c(SCC(=O)Nc4cc(C(F)(F)F)ccc4Cl)nccn3n2)cc1 :: 11.4
CCCc1c(CC)c(=N)c2ccccc2n1C :: -39.2

###

System: Plasmodium falciparum
procedure.details: MMV: P. falciparum NF54 functionally mature Stage V gametocytes were incubated for 24 hr in the presence of the test compounds. Gamete formation was then triggered by addition of 2uM xantheurenic acid and temperature decrease to ~20C. Female gamete formation was recorded 24 hr later by automated microscopy detection of surface labelling of female gametes with a Cy3-conjugated antibody reactive to Pfs25. All compounds were tested in 4 independent experiments and data presented here is the mean. IC50s determined for selected compounds.
Assay type: functional, organism-based
particulars: NF54, 24 h
pIC50: −log10 of the molar value.
readout.label: pIC50

OC1CCCCC1C1(NC(=S)Nc2ccccc2)CCCCC1 (stereo unspecified) :: 6.21
CCOC(=O)c1cn(CC)c2cc(N3CCCCC3)c(F)cc2c1=O :: < 4.30
COc1cccc(NC(=O)[C@H](C(C)C)n2c(=O)[nH]c3ccccc3c2=O)c1 :: 6.42
COc1ccccc1NC1=C(N2CCCCC2)C(=O)c2ccccc2C1=O :: < 4.30
OC1=C2C(=Nc3ccccc3SC2c2ccc(Br)cc2)c2ccccc21 (stereo unspecified) :: < 4.30
CCOC(=O)c1cn(CC)c2cc(N(C)CCc3ccc(OC)c(OC)c3)c(F)cc2c1=O :: < 4.30

###

System: Plasmodium falciparum
procedure.details: MMV: P. falciparum NF54 functionally mature Stage V gametocytes were incubated for 24 hr in the presence of the test compounds. Gamete formation was then triggered by addition of 2uM xantheurenic acid and temperature decrease to ~20C. Male gamete exflagellation was recorded and analysed by automated microscopy after 20 min. All compounds were tested in 4 independent experiments and data presented here is the mean.
Assay type: functional
Parameters: concentration or dose not given beside the values
Please mark Met if the recorded inhibition is equal to or greater than 10%, and Not met if it falls below.

CCC(O)c1ccc(Br)cc1NC(=O)c1cccc(Cl)c1 (stereo unspecified) :: Not met
O=C(NNc1cc(N2CCCC2)nc(N2CCCC2)n1)c1ccccc1 :: Met
FC(F)(F)c1cccc(Nc2nc3ccccc3nc2Nc2cccc(C(F)(F)F)c2)c1 :: Met
COc1ccc(Nc2cc(C)nc(NCc3ccccc3)n2)cc1 :: Not met
CCCN(CCC)CCCNC(=O)c1cc2c(-c3ccc(OC)c(OC)c3)nn(C)c2s1 :: Not met
O=C(NCc1ccco1)C1CCN(S(=O)(=O)c2ccc(Br)cc2)CC1 :: Met
COc1cccc(-c2nn(C)c3sc(C(=O)NCCN4CCN(c5ccccc5F)CC4)cc23)c1 :: Met
COc1ccc(N2CCN(C(CNC(=O)CC(C)(C)C)c3ccc4c(c3)OCO4)CC2)cc1 (stereo unspecified) :: Not met
Cc1cccc(N2C(=O)C3C(C2=O)C2(c4ccccc4)C(=O)C3(c3ccccc3)C(c3ccc4c(c3)OCO4)=C2c2ccc3c(c2)OCO3)c1 (stereo unspecified) :: Met
Cc1ccc(CN2CCC(C(=O)Nc3ccc(-c4cc5ccccc5[nH]4)cc3)CC2)o1 :: Not met
CC(Oc1ccc(NC(=O)c2cccs2)cc1)C(=O)c1ccc(Cl)cc1 (stereo unspecified) :: Met
CCOc1ccccc1CNC(=O)C1c2ccccc2C(=O)N(CC(C)C)C1c1cccs1 (stereo unspecified) :: Met
c1ccc(Cn2c(N=Nc3c(Nc4ccccc4)ccc4ccccc34)nc3ccccc32)cc1 :: Not met
O=C(Nc1ccc(CN2CCOCC2)cc1)c1ccc(-c2cc(Cl)ccc2Cl)o1 :: Not met
COc1ccc(NC(=O)C2c3ccccc3C(=O)N(CC(C)C)C2c2cccs2)cc1 (stereo unspecified) :: Met
Cc1cc(C)c2nc(N3CCC(C(=O)NCCCN4CCC(N5CCCCC5)CC4)CC3)sc2c1 :: Not met
c1ccc(CNc2nc(Nc3ccccc3)nc3ccccc23)cc1 :: Not met
COc1ccccc1C(=O)ON=C(N)Cc1cccc2ccccc12 :: Met
CCC(=O)Nc1nnc(Cc2ccc(OC)c(OC)c2)s1 :: Met

###

Test system: Plasmodium falciparum
procedure.details: MMV: P. falciparum NF54 functionally mature Stage V gametocytes were incubated for 24 hr in the presence of the test compounds. Gamete formation was then triggered by addition of 2uM xantheurenic acid and temperature decrease to ~20C. Male gamete exflagellation was recorded and analysed by automated microscopy after 20 min. All compounds were tested in 4 independent experiments and data presented here is the mean.
Format: functional
Set-up: concentration or dose not given beside the values
readout.label: inhibition (%)

COc1ccc(Br)cc1C1Nc2ccc3ccccc3c2C2=C1C(=O)CC(c1ccccc1)C2 (stereo not given) :: 9.97
C=C(C)CCC(C)N1CCC(N2CCC(C(=O)NCCc3ccccc3)CC2)CC1 (stereo not given) :: 9.7
COc1cccc(C(=O)Nc2ccc(-c3nc4ccccc4[nH]3)cc2)c1 :: 24
COc1cc(C(=O)Nc2nc3c(cc4c5c(cccc53)CC4)s2)cc(OC)c1OC :: -1.82
Cc1ccc(-c2cc(C(=O)Nc3ccc(S(=O)(=O)N4CCCCC4)cc3)[nH]n2)c(O)c1 :: 7.64

###

Tested on: Plasmodium falciparum
procedure.details: MMV: P. falciparum NF54 functionally mature Stage V gametocytes were incubated for 24 hr in the presence of the test compounds. Gamete formation was then triggered by addition of 2uM xantheurenic acid and temperature decrease to ~20C. Male gamete exflagellation was recorded and analysed by automated microscopy after 20 min. All compounds were tested in 4 independent experiments and data presented here is the mean.
Format: functional
Parameters: concentration or dose not given beside the values
inhibition overview
readout.label: inhibition (%)

CCOc1ccc(CN2CCN(CC(O)COc3ccc(OCC(O)CN4CCN(Cc5ccc(OCC)cc5)CC4)cc3)CC2)cc1 (centres undefined) :: -9.77
CN(C)c1ccc(C(O)(c2ccc(N(C)C)cc2)c2ccc(N(C)C)cc2)cc1 :: 19.7
O=C(Nc1ccc(Cl)cc1C(=O)Nc1ccncc1)c1ccc(Cl)cc1Cl :: 7.46
CCOC(=O)C1(Cc2ccccc2)CCN(Cc2cccc(OC)c2O)CC1 :: -10.2
CN(C)CCNc1cc(-c2ccccc2)nc2ccccc12 :: 2.52
Cc1cc(C=C2SC(=Nc3ccccc3)N(C3CCCC3)C2=O)c(C)n1-c1ccc(Cl)cc1 :: 31.4
CCOc1ccc(-c2nc(NC(=O)c3cccc(S(C)(=O)=O)c3)sc2C)cc1 :: 0.81
O=C(Nc1ccc(N2CCN(Cc3ccccc3)CC2)cc1)c1cccs1.O=C(O)C(F)(F)F :: 39.5
Cl.c1ccc2c(NCCCCCCNc3c4c(nc5ccccc35)CCCC4)c3c(nc2c1)CCCC3 :: 18.8
CCOC(=O)c1cnc2ccc(OC)cc2c1Nc1ccc(N2CCN(C)CC2)cc1 :: -13.9
COc1ccc(C2NCCc3c2[nH]c2ccccc32)cc1CN1CCN(c2ccc(F)cc2)CC1.Cl (centres undefined) :: 5.86
O=C(Nc1ccc(Cl)cc1)N1CCN(c2ccc3nncn3n2)CC1 :: 25.9
CCOc1c(Cl)cc(CNC(C)C(O)c2ccccc2)cc1OC (centres undefined) :: 11.3
Cc1cc(C)c2c(c1)OCN(Cc1ccccc1Cl)C2 :: 25.8
Cc1ccc(Cl)cc1N1CCN(CCCNC(=O)C2CCN(c3nc4ccccc4[nH]3)CC2)CC1 :: 5
COc1nc(Nc2ccc(C(C)C)cc2)nc(OC)n1 :: -0.697
COc1ccccc1CNC(=O)CCn1c(=O)[nH]c2ccsc2c1=O :: 22.3
Cc1ccc(C(=O)c2oc3ccc4c(C)cc(=O)oc4c3c2C)cc1 :: -7.03
O=C(Nc1cccc(C(F)(F)F)c1)c1cc(Cl)ccc1O :: 24.9
CCN1CCN(c2cc(C)c3cc(NC(=O)c4ccc(OC)c(OC)c4)ccc3n2)CC1 :: -3.72
CC(NCc1ccccc1)c1cc(Cl)ccc1O (centres undefined) :: -5.35
Br.CCn1c2c(c(=N)c3c1CCC3)CCCC2 :: -42.4
CCOC(=O)c1cnc2ccc(OC)cc2c1NCc1ccccc1 :: -12.8
CC(=O)c1sc(NC(=O)Nc2ccc(C)cc2C)nc1C :: -39.7
Br.CCN(CC)S(=O)(=O)c1ccc(-c2csc(Nc3ccc(C)c(C)c3)n2)cc1 :: 21.9
COc1ccc(C=C2SC(Nc3ccc(F)cc3)=NC2=O)c(OC)c1 :: 42.9
CCN1CCN(c2c(C(=O)c3ccccc3)cnc3cc(OC)c(OC)cc23)CC1 :: -41.4
Cc1cc(C)cc(Nc2cc(C)nc3nc(C(F)(F)F)nn23)c1 :: 13.1
OC1=C2C(=Nc3ccccc3SC2c2ccccc2)c2ccccc21 (centres undefined) :: 58.8
O=C(NCCCN1CCC(N2CCCCC2)CC1)C1=Cc2cc(Br)ccc2OC1 :: 8.14
COc1cc(CNCCc2ccc(Cl)cc2)cc(OC)c1O :: -14.1
Cn1c(=O)c2cc(C(=O)NCCCN3CCCCCC3)sc2c2ccccc21 :: 20.7
COc1ccc(C(=O)Nc2ccc(Cl)cc2C(=O)Nc2ccncc2)cc1 :: 14.4
CN1C=C(c2ccc3ccccc3n2)C(c2c[nH]c3ccccc23)c2ccccc21 (centres undefined) :: -6.39
Cc1ccc(-c2nc3ccccc3o2)cc1NCc1cc(Cc2ccccc2)ccc1O :: 13.9
CCCCNc1nc(NC(C)(C)C)nc(NC(C)(C)C)n1 :: -9.24
Clc1ccc2[nH]c3c(NCCCN4CCOCC4)ncnc3c2c1 :: 21.6
CN(C)CCCNc1c2ccccc2nc2ccccc12 :: 97.5
CCN(CC)CCNc1ncnc2c1[nH]c1ccc(Br)cc12 :: -106
O=[N+]([O-])c1ccc(C=NNc2nc3ccccc3[nH]2)cc1 :: 18.3
COc1cc2c3cc1Oc1c(OC)c(OC)cc4c1C(Cc1ccc(O)c(c1)Oc1ccc(cc1)CC3N(C)CC2)N(C)CC4.Cl (centres undefined) :: -64.1
CC(C)(C)C(=O)Nc1ccc(C(=O)Nc2cccc(-c3nc4ccccc4[nH]3)c2)cc1 :: 11
COc1ccc2c(=O)cc(C(Cl)(Cl)Cl)oc2c1 :: 31.7
CCN(CC)CCCNc1ccnc2cc3ccccc3cc12 :: 30.2

Data credit: ChEMBL document CHEMBL3301451
